test system: PPARa:RXRa (NR concentration 270 nM, RXRa partner concentration 90 nM); test: PBM binding z-score (relative to random genomic background probes); higher = stronger binding; sequences stand for … in GC…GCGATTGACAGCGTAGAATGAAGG
Given measured PBM binding z-score, output Fulfilled if it is greater than or equal to 4 and Not fulfilled if not.

Reported PBM binding z-score at or above 4? ATCGAAAGGTCCAAGGTGAGTATACCCACCCGAA
Not fulfilled

Reported PBM binding z-score at or above 4? AATACAGGGTCATCGTACGCCAGAGTACGCACAG
Fulfilled

Reported PBM binding z-score at or above 4? TCTTGTAGATCAACAGGAGGTTAATAAAGATCGA
Not fulfilled

Reported PBM binding z-score at or above 4? CCGACTGGGGCAAGGTCACCATAACGCACAGCCA
Fulfilled

Reported PBM binding z-score at or above 4? CGTCCGAGGTCATAGGAGGTCAGTGAAGACAGAT
Fulfilled

Reported PBM binding z-score at or above 4? CCTTACGGGTCAAGGTTATAGCCCGGGTGGTACG
Fulfilled

Reported PBM binding z-score at or above 4? CCTGCGAGGTCATGGTCAGCTAATCTACAGTATG
Fulfilled

Reported PBM binding z-score at or above 4? CCGAGTTGGTCAAGGTCACACACGCTATAGGTAC
Fulfilled

Reported PBM binding z-score at or above 4? CGTCAAAGTCCAAGGTAACGTAACAGAAAGCAGC
Not fulfilled

Reported PBM binding z-score at or above 4? ATATGTAGGTTATCGGGTCATACAGTTTGCGCAT
Fulfilled

Reported PBM binding z-score at or above 4? GCTAGTTGGTCAGTAAAATGTCACACACCGGTCG
Not fulfilled

Reported PBM binding z-score at or above 4? AGTCAAAGTTGAGGACGAGGTAACGTAAAGCACG
Not fulfilled

Reported PBM binding z-score at or above 4? CCTACTGGGCCATTCAGAGGTCAATGATCATATG
Not fulfilled

Reported PBM binding z-score at or above 4? AGTCAAAGTGCATCTAGGTAACGTAAGATATGCT
Not fulfilled

Reported PBM binding z-score at or above 4? CCTACTGGGCCACGAAAGGCCATTGATTCAGTGA
Not fulfilled

Reported PBM binding z-score at or above 4? AGTCAAAGTTCAGGACGAGGTAACGTTAAGCACG
Not fulfilled

---

test system: PPARg:RXRa IVT, anti-PPARg (NR concentration 270 nM, RXRa partner concentration 90 nM); assay: PBM binding z-score (relative to random genomic background probes); higher = stronger binding; sequences stand for … in GC…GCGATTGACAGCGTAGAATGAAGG
Assay readout: PBM binding z-score
# respond with the number and nothing more

Under PPARg:RXRa IVT, anti-PPARg (NR concentration 270 nM, RXRa partner concentration 90 nM): PBM binding z-score value of ATATGTAGGTTAAAGGTCATTCAGGTTGGTTCGC ?
8.56

Under PPARg:RXRa IVT, anti-PPARg (NR concentration 270 nM, RXRa partner concentration 90 nM): PBM binding z-score value of ATATGTAGGTTAGGGTCAGTCAGAAAGTAGGGAA ?
6.71

Under PPARg:RXRa IVT, anti-PPARg (NR concentration 270 nM, RXRa partner concentration 90 nM): PBM binding z-score value of GATATAGGGTCAGCTAGAGGCCAGAGTATGGAAA ?
3.12

Under PPARg:RXRa IVT, anti-PPARg (NR concentration 270 nM, RXRa partner concentration 90 nM): PBM binding z-score value of ATCGAAAGGTCGAAGGTGCGTATACCCACCCGAA ?
1.39

Under PPARg:RXRa IVT, anti-PPARg (NR concentration 270 nM, RXRa partner concentration 90 nM): PBM binding z-score value of GATACAGGGTCAGCTACAGGCCAGAGTATGGAAA ?
2.25

Under PPARg:RXRa IVT, anti-PPARg (NR concentration 270 nM, RXRa partner concentration 90 nM): PBM binding z-score value of ATATGTAGGTCAAGGGTCATTCAGGTTGGTTCGC ?
9.34

Under PPARg:RXRa IVT, anti-PPARg (NR concentration 270 nM, RXRa partner concentration 90 nM): PBM binding z-score value of CGTCAAAGTTCAACTGAGGTAACGTAAAGCACGC ?
2.31

Under PPARg:RXRa IVT, anti-PPARg (NR concentration 270 nM, RXRa partner concentration 90 nM): PBM binding z-score value of CCTTAGGGGTCACTCCAGGTTATAGCATCGGAGT ?
5.37

Under PPARg:RXRa IVT, anti-PPARg (NR concentration 270 nM, RXRa partner concentration 90 nM): PBM binding z-score value of CGAACTAGGTCGCCAGGACAGTGAAGAGGTTGGA ?
5.49

Under PPARg:RXRa IVT, anti-PPARg (NR concentration 270 nM, RXRa partner concentration 90 nM): PBM binding z-score value of AATACGGGGTCATCGTAGGCCAGAGTACGCACAG ?
5.98

Under PPARg:RXRa IVT, anti-PPARg (NR concentration 270 nM, RXRa partner concentration 90 nM): PBM binding z-score value of TCGCCTAGGTCATGGGCCAGTATACCACGCGAAC ?
2.65

Under PPARg:RXRa IVT, anti-PPARg (NR concentration 270 nM, RXRa partner concentration 90 nM): PBM binding z-score value of CAAAATAGGTCACCGGAAGGTCAAAGTCCGCATG ?
8.01

Under PPARg:RXRa IVT, anti-PPARg (NR concentration 270 nM, RXRa partner concentration 90 nM): PBM binding z-score value of GCTTAGGGGTCAAAGGTTATAGCATGAATAGAAT ?
6.52

Under PPARg:RXRa IVT, anti-PPARg (NR concentration 270 nM, RXRa partner concentration 90 nM): PBM binding z-score value of TAGCCTAGGTCATGCGGCCCAGTATAGTGTCGGC ?
2.78

Under PPARg:RXRa IVT, anti-PPARg (NR concentration 270 nM, RXRa partner concentration 90 nM): PBM binding z-score value of CAAACTAGGTCAAAAGGTCAAAGTCCGCTTCCCG ?
8.17

Under PPARg:RXRa IVT, anti-PPARg (NR concentration 270 nM, RXRa partner concentration 90 nM): PBM binding z-score value of TGTCAACGTTCAAAGGTAACGTAAGTATCCACAC ?
1.78

Under PPARg:RXRa IVT, anti-PPARg (NR concentration 270 nM, RXRa partner concentration 90 nM): PBM binding z-score value of CCTAGTTGTTCAGGAGGTCACACACCGGATATGA ?
2.97

Under PPARg:RXRa IVT, anti-PPARg (NR concentration 270 nM, RXRa partner concentration 90 nM): PBM binding z-score value of CCTAGTTGGTCAAGGTCACATACGCTATAGGTAC ?
3.3

Under PPARg:RXRa IVT, anti-PPARg (NR concentration 270 nM, RXRa partner concentration 90 nM): PBM binding z-score value of TAGCCTAGTTCATGCGGGCCAGTATAGTGTCGGC ?
0.949

Under PPARg:RXRa IVT, anti-PPARg (NR concentration 270 nM, RXRa partner concentration 90 nM): PBM binding z-score value of AGTCAAAGTTCATCTAGGTAACATAAGATATGCT ?
3.9

---

tested on: PPARa:RXRa (NR concentration 270 nM, RXRa partner concentration 90 nM); experiment: PBM binding z-score (relative to random genomic background probes); higher = stronger binding; sequences stand for … in GC…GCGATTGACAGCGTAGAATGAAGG
Given measured PBM binding z-score, output class 1 if it is greater than or equal to 5 and class 0 if not.

Reported PBM binding z-score at or above 5? GCTGCTAGGTCAACTGATGGCCAGCTAAAGCTCG
class 0

Reported PBM binding z-score at or above 5? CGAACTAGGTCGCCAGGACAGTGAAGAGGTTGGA
class 0

Reported PBM binding z-score at or above 5? CGTCAAAGTTCAACTAAGGTTACGTAAAGCACGC
class 1

Reported PBM binding z-score at or above 5? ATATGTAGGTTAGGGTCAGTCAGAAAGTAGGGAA
class 0

Reported PBM binding z-score at or above 5? TCTAGTTGGTCAAAGGTCACGCACTCGAAATGCG
class 1

Reported PBM binding z-score at or above 5? CCTACTGGGCCACTAAAGGTCATTGATTCAGTGA
class 0

Reported PBM binding z-score at or above 5? AGAATGAGATTACCAAAGATCAGGGAAACGCTTG
class 0

Reported PBM binding z-score at or above 5? CGAACTAGGTCAAGGACAGTAAATCTCCGCACGC
class 0

Reported PBM binding z-score at or above 5? TAGCCTAGGTCATGCGGGCCAATATAGTGTCGGC
class 0

Reported PBM binding z-score at or above 5? CGAACGAGGTCATCCAGGACAGTGAATACATTGA
class 1

Reported PBM binding z-score at or above 5? TTACCAAGGTGAAAGGTCGTTGCTGCACGCCTTG
class 1

Reported PBM binding z-score at or above 5? CGTACAAGGTCAAAGGTCAGTGAAGAGATGACGG
class 1

Reported PBM binding z-score at or above 5? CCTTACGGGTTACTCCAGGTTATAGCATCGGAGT
class 0

Reported PBM binding z-score at or above 5? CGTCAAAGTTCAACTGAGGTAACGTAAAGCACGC
class 1

Reported PBM binding z-score at or above 5? CCTACGGGGCCACGAAAGGTCATTGATTCAGTGA
class 0

Reported PBM binding z-score at or above 5? TACCCTAGGTCATGGGCCAGTATACCACGCGAAC
class 0

Reported PBM binding z-score at or above 5? TCTATTAGTTGATTAGGGCAACCGAAACAGCGGA
class 0

Reported PBM binding z-score at or above 5? TCTCGGAGGAAACGAAAGGTCAGAGCTCGACATC
class 0

Reported PBM binding z-score at or above 5? CGTCCAAGGTCATAGAGGTCAGTGAATGCCGAGT
class 1

Reported PBM binding z-score at or above 5? ACTTACGGCTCAACGAGGTTATAGCACGCGTATA
class 0

Reported PBM binding z-score at or above 5? TCTTGTAGATCAATAGAAGTTAAGAAAGTGCGCT
class 0

Reported PBM binding z-score at or above 5? AGAATGAGGTCAAGATCAGGGAAACAGAATACAT
class 1

Reported PBM binding z-score at or above 5? CCTTACGGGTCACGTGGTTATAGCACGACGAGCG
class 1

Reported PBM binding z-score at or above 5? GCTAGTTGGTCAGTAAAAGGTGACACACCGGTCG
class 0

Reported PBM binding z-score at or above 5? ACTTACGGGTCTACGAGGTTATAGCACGCGTATA
class 0

Reported PBM binding z-score at or above 5? ATATGTAGGATAGCTGGGGTCATTCAGACTAGGC
class 0

Reported PBM binding z-score at or above 5? CCTACTGGGTCACGAAAGGTCATTGATTCAGTGA
class 1

Reported PBM binding z-score at or above 5? CGTCCAAGGTCGAAGGTCAGTGAAGAGATGACGG
class 0

Reported PBM binding z-score at or above 5? GGAACGAGGGCATTCGAGTTCATAGCATGGCGAT
class 0

Reported PBM binding z-score at or above 5? ATCTCTAGGTTAAGATAGTTCAGTGAATGCAAAT
class 0

Reported PBM binding z-score at or above 5? TCTAGTTGGTCACGGAGGGCACACACGACGGGTA
class 0

Reported PBM binding z-score at or above 5? TAGCCTAGGTTATGGGCCAGTATACCACGCGAAC
class 0

Reported PBM binding z-score at or above 5? CAAACCAGGTCAAAGGTCAAAGTCGAGCCAACCA
class 1

Reported PBM binding z-score at or above 5? ATATGTAGGTTAGCTGGGGTCATTCACACTAGGC
class 1

Reported PBM binding z-score at or above 5? GGAACGAGGGCAAAGTTCATAGCATCTGTCGACG
class 1

Reported PBM binding z-score at or above 5? ATATGTAGGTTATCTGGGGTCATTCAGACTAGGC
class 1

Reported PBM binding z-score at or above 5? CTATGTAGGTTAGGGGGGTCATTCAGTTTGAAAG
class 1

Reported PBM binding z-score at or above 5? CAAACGAGGTCAAAGGTCAAAGTCGAGCCAACCA
class 1

Reported PBM binding z-score at or above 5? AGTCAAACTTCAGGACGAGGTAACGTAAAGCACG
class 0
